# System: CCRIS mutagenicity, Ames/micronucleus/aberration tests
# Experimental Details: CCRIS mutagenicity studies
# Test Conditions: Test System: AMES SALMONELLA TYPHIMURIUM; Strain/Indicator: TA102; Metabolic Activation: NONE; Method: STANDARD PLATE
Calls of active or inactive are those of the source. How the calls were made is not given here.
Your response should consist of one outcome taken from label 1 for active, label 0 for inactive

For orientation, consider the following solved cases.
Compound: C=C(C)C(=O)OCC(O)COc1ccc(C(C)(C)c2ccc(OCC(O)COC(=O)C(=C)C)cc2)cc1 (stereo not given)
Group Label: label 0
//
Compound: COC1=CC(=O)c2c(nc(C)c3c2[nH]c2ccncc23)C1=O
Group Label: label 1

Call for entry CCn1nc(C(=O)O)c(=O)c2cc3c(cc21)OCO3 :
label 1

Fill in: this test's call for CN(C)C1Cc2cccc3cccc(c23)C1 is ___
label 0

Per the assay record, what outcome was assigned to CC/C=C\C=C\CCCCCCOC(C)=O ?
label 0

What classification did O=[N+]([O-])c1cc2ccc3cccc4ccc(c1)c2c34 end up with in this test?
label 0

For CCN(CC)Cc1cc(Nc2ccnc3cc(Cl)ccc23)ccc1O , what call appears in the results of this test?
label 0
